Hey, just so you know, these numbers are from patent US20250011410A1.

# target-or-system: T1, canine NGF tagged at the C-terminus with the Flag tag (canine, UniProt A0A8I3PYI3 122-241)
# T1 construct: mature; Expressed with baculovirus technology; also called feline NGF (processed form identical)
# T1 sequence (A0A8I3PYI3 entry or part of it): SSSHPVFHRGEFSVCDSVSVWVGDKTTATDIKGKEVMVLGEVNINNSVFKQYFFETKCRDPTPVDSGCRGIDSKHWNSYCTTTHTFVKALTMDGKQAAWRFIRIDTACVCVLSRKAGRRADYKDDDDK
# experiment-description: SPR off-rate assay, Fab-SASA on BSA chip
Below, each entry is listed alongside its reported kon.
Quick note: give the figure in M⁻¹ s⁻¹, leave out the unit.

Some solved entries appear below for comparison.
[[record]]
binder = "AHF17592 (Fab, V domains shown, not shown: small tags and cut ends) VH: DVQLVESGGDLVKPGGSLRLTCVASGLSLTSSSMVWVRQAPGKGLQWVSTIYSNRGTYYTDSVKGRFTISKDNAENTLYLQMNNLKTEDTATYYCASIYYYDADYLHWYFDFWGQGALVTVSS VL: EIQMTQSPTSLSASVGDRVTITCRASEGISNNLSWYQQTPGKAPKLLIYATSVLHSGVPSRFSGSGSGTDFTLTISSLQPEDFATYYCQQGYKWPLTFGGGTKLEITR"
recorded_result = 192000

[[record]]
binder = "AHF17594 (Fab, V domains shown, not shown: small tags and cut ends) VH: DVQLVESGGDLVKPGGSLRLTCVASGLSLTSSSMVWVRQAPGKGLQWVSTIYSNGGTYYTDSVKGRFTISKDNAENTLYLQMNNLKTEDTATYYCASIYYYDADYLHWYFDFWGQGALVTVSS VL: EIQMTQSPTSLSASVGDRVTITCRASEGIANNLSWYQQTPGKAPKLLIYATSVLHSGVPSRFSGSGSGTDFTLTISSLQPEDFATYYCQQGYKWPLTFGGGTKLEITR"
recorded_result = 353000

[[record]]
binder = "AHF17596 (Fab, V domains shown, not shown: small tags and cut ends) VH: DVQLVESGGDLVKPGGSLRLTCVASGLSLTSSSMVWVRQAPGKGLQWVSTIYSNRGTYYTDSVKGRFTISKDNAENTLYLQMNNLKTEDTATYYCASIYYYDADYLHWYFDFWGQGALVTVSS VL: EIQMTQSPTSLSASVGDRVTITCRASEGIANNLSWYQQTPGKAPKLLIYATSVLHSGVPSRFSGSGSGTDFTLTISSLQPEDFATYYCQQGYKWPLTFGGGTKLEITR"
recorded_result = 227000


// moving on: another record for kon
Query: Please report the recorded kon for AHF17598 (Fab, V domains shown, not shown: small tags and cut ends) VH: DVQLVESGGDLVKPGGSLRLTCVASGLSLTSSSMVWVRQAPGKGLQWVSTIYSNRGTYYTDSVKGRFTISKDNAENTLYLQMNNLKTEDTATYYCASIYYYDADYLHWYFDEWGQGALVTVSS VL: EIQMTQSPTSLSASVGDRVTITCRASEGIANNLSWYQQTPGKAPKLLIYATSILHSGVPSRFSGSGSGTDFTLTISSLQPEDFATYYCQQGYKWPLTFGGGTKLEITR .
Reply: 294000
